# Test Context: acidic group
Recorded pKa values for a group of compounds are listed next.
// keep it numeric: no unit symbol after the value

> print(dat)
                            compound  recorded.endpoint  quantitative.result
1                  CC(=O)[n+]1ccccc1                pKa                 5.32
2         O=[N+]([O-])c1cccc(NC=S)c1                pKa                 10.3
3  NC(=O)[C@@H](N)CSSC[C@H](N)C(N)=O                pKa                 6.41
4   O=C(O)CNC(=O)CNS(=O)(=O)c1ccccc1                pKa                 3.55

Cc1ccc(C(=O)c2ccccc2C(=O)O)cc1 has a reported pKa of 3.64

Data point: NC1=[NH+][C@H]2C[C@@H](N1)[NH2+][C@@H]2C(=O)O ; pKa = 1.3

Note to self: pKa recorded for Oc1nc2nc[nH]c2c[nH+]1 was 1.69

For reference, reported pKa for CC(=O)CC(=O)C(F)(F)F stands at 6.09

Record O=C(O)/C=C\c1c[nH]c[nH+]1 , field pKa: 3

* * *

# Test Context: acidic group
Where a SMILES comes first, the peptide text is derived from it. [ ]: non-standard residue; d: D form. pGlu = O=C1CC[C@@H](C(=O)O)N1
Classification by pKa | ranges: low interval = under 5, middle interval = from 5 up to 10, high interval = 10 and over

> print(dat)
                                    molecule    group.label
 1                              C=C(F)C(=O)O   low interval
 2  C[C@H](NC(=O)[C@@H]1CCC(=O)N1)C(=O)O ([pGlu]-Ala-OH)   low interval
 3                       COc1ccc(CC(=O)O)cc1   low interval
 4               O=[N+]([O-])c1cccc(O)c1[O-]  high interval
 5                           CCOc1cccc[n+]1O   low interval
 6                   COc1cc(C(=O)O)cc(OC)c1O   low interval
 7                   [O-]c1nc(O)nn1-c1ccccc1  high interval
 8                       Cc1ccc(SCC(=O)O)cc1   low interval
 9                CSc1nc2cc3c(cc2[nH]1)CCCC3  high interval
10  CC/C=C/CC1=[NH+]C(C(=O)O)[C@@H]2SC(C)(C)C(C(=O)O)N12 (stereo not given in full)   low interval

Request: Textbook exercise: identify the category of the molecule given here, CC(=O)/C=C(/C)O , according to its measured value.
Response: middle interval

Request: Please classify: CCC(=O)OO
Response: middle interval

Request: Please let me know in which category the item CCCCCCCCCCCCCC(=O)N(O)c1ccccc1 belongs.
Response: middle interval

* * *

# Test Context: acidic group
Recorded Endpoint: pKa
Answer as a number with no unit attached.

Worked examples, 3 compounds total:
> print(dat)
                             smiles.text  recorded.endpoint  quantitative.result
1  COc1cc(OC)nc(NS(=O)(=O)c2ccc(O)cc2)n1                pKa                 7.29
2               CC[NH+](CC)Cc1cccc(F)c1O                pKa                 7.26
3                               CCS(=O)O                pKa                 2.27

--- query ---
Field pKa (entry Cc1nonc1NS(=O)(=O)c1ccc(N)cc1 ) reads 4

* * *

A collection of compounds and their measured pKa
# Test Context: basic group
The response must contain the number and no unit.

> print(dat)
                                   compound  recorded.endpoint  quantitative.result
1            Cn1c([O-])[nH+]c2cnc([O-])nc21                pKa                 8.74
2  CCC(=O)C(CC(C)N1CCOCC1)(c1ccccc1)c1ccccc1 (configuration not stated)                pKa                 6.89
3                              Cc1ccnc(N)n1                pKa                  4.2

Record CSc1cccc2ncccc12 , field pKa: 4.5

pKa measured on c1c[nH]c(Cc2[nH]cc[nH+]2)n1 = 4.9

Data point: Cc1c2ccncc2cc2c1[nH]c1ccncc12 ; pKa = 7.5

Memo: Cn1cnc2[nH]c(=O)[nH]c(=O)c21 , reported pKa: 0.87

* * *

Quick reference for pKa among some compounds
# Test Context: basic group

> print(dat)
                                   compound  recorded.endpoint  result
1                       Nc1ccnc2cc(Cl)ccc12                pKa    8.22
2                                 Cc1ccncc1                pKa    6.15
3  CCCCC(CC)CNc1ncnc2[nH]ncc12 (stereo not drawn)                pKa     4.6
4                 C(=C\CN1CCCCC1)/CN1CCCCC1                pKa     9.7
5      Clc1cc(-c2ccccc2)nnc1NCC[NH+]1CCOCC1                pKa    2.54
6                  Cc1c(N)ccc2c1-c1ccccc1C2                pKa    4.83
7                              C=CCN1CCOCC1                pKa    7.05

Shifting focus to the compound that follows.
Reported pKa ( CC[C@@H]1C(=O)OC[C@H]1Cc1cncn1C ) = 7.17

* * *

# Test Context: basic group
Tag: class 1 if measured pKa is not below 7, class 0 if it is.

> print(dat)
                              compound  group.label
1   NC1CCc2ccccc2C1 (stereo not drawn)      class 1
2  O=C([O-])C1CSCN1 (stereo not drawn)      class 0
3                 Cc1cc(CN)c(O)c(CN)c1      class 1
4               CC(C)NNC1CC[NH+](C)CC1      class 0
5                         [O-]c1ccnnc1      class 1

Request: Please check the record Cn1cnc2cncnc21 and state if its pKa is at or above 7.
Response: class 0

Request: Could you please find out whether Nc1ccc2[nH]ncc2c1 has pKa that meets 7 or exceeds it?
Response: class 0

Request: # bool: pKa of CC(C)N/C=N/c1ccc(-c2c[nH]cn2)cc1 >= 7
Response: class 1

* * *

# Test Context: basic group
Recorded Endpoint: pKa
No unit in the answer, please; the number alone is enough.

> print(dat)
                    smiles.text  recorded.endpoint  quantitative.result
1  Nc1ccc(S(=O)(=O)Nc2nncs2)cc1                pKa                 2.15

Let us move to another entry and its pKa.
Sample CN(C)Cc1ccc(O)c(O)c1O ; pKa observed: 8.26

* * *

# Test Context: basic group
Recorded Endpoint: pKa

Consider the reported pKa for these compounds:
> print(dat)
                                   compound  recorded.endpoint  result
1  O=C([O-])C(CO)NCc1ccccc1O (stereo not given)                pKa    8.22
2  CCOCCn1c(CN2CC[NH+](CCCCn3cccn3)CC2)nc2ccccc21                pKa     4.8
3                           Cn1cc([O-])nc1N                pKa    13.4
4                   CCN(CC)Cc1cccc(C)c1[O-]                pKa    10.9

response.value for O=C(CCN1CCOCC1)c1cccc([N+](=O)[O-])c1 (field: pKa) = 6.5

* * *

# Test Context: acidic group
Where a SMILES comes first, the peptide text is derived from it. [ ]: non-standard residue; d: D form. pGlu = O=C1CC[C@@H](C(=O)O)N1
Label 1 for high-side pKa (at or above 6) and -1 for low-side pKa (below it).

Some entries whose results are on file:
> print(dat)
                                   molecule  group.label
1            Cc1cc(C)c([N+](=O)[O-])c(C)c1O            1
2                            CCCCCCCC(=O)NO            1
3  CC(O)(c1ccccc1)C(C(=O)O)c1ccc(-c2ccccc2)cc1 (centres undefined)           -1
4                               O=C(O)C#CCl           -1
5                             O=c1cc[nH]cc1            1

Request: Would you say CCCCCCCCCCCNCc1ccc(C)cc1 shows pKa at minimum 6?
Response: 1

Request: Check if pKa >= 6 (inclusive). Item: COc1ccc(B(O)O)cc1
Response: 1

Request: State whether the measured pKa reaches 6, counting equality as reaching it, for [NH3+]CCC(=O)NC(Cc1c[nH]c[nH+]1)C(=O)O (centres undefined)
Response: -1

Request: Say whether CN(C)/C=N/c1ccccc1O shows pKa of 6 or more.
Response: 1

Request: Answer whether pKa of CBr is greater than or equal to 6.
Response: 1

Request: Reported pKa reaches at least 6 for Cc1nnn[nH]1 ?
Response: -1

Request: Is reported pKa greater than or equal to 6 here: O=C(O)c1csc([N+](=O)[O-])c1
Response: -1

Request: For this molecule, is measured pKa 6 or higher? Cc1ccccc1C(=O)O
Response: -1

Request: Test whether the molecule O=c1cccc(O)cc1 records pKa of 6 or higher.
Response: -1

Request: Could you verify whether the entry C[C@H](NC(=O)[C@H](CCC(N)=O)NC(=O)[C@@H]1CCC(=O)N1)C(=O)O ([pGlu]-Gln-Ala-OH) shows pKa of no less than 6?
Response: -1

Request: Evaluate O=C(O)C1CC1(Cl)Cl (centres undefined) : pKa at minimum 6?
Response: -1

Request: Tell me whether pKa is at least 6 here: CCOC(=O)C1(CCC(=O)O)CCC(=O)NC1=O (centres undefined)
Response: -1

Request: Hi, just wondering whether O=S(=O)(Nc1ccccc1)C(F)(F)F shows pKa of 6 or higher.
Response: -1

Request: State whether the measured pKa reaches 6, counting equality as reaching it, for O=Cc1c(O)cccc1Cl
Response: 1

The measurements presented in this section are drawn from the pKa sets of Baltruschat and Czodrowski (2020).
